Tested on: HSV-2 (333 strain)
assay_method_text: CPE inhibition assay, HSV-2
assay_context: Human alphaherpesvirus 2, Vero, 24 h, read-out: HSV-2 IC50
measure_name: IC50 (µM)
# unit: µM | format: bare number

### Prompt Dear colleague, I am looking for the recorded IC50 of the following molecule: Nc1nc2c(ncn2COCCO)c(=O)[nH]1
### Response 11.6

----------
assay_method_text: MTT cytotoxicity assay in Hep-2 cells
Assay type: cell-based
assay_context: human, CC50, Hep-2 cells, MTT assay, concentration required to reduce cell viability by 50%
measure_name: CC50 at 24 h (µM)
Your answer is read as µM, so omit the unit and give the number.

### Prompt Dear colleague, I am looking for the recorded CC50 at 24 h of the following compound: Nc1nc2c(ncn2COCCO)c(=O)[nH]1
### Response 898

The origin of these recorded values is paper PMC7111628.
